- measurement-protocol: qHTS assay for small molecule agonists of the antioxidant response element (ARE) signaling pathway - cell viability counter screen (AID 743203); note: nearly all actives have a fitted effect of over 55% in size
- measurement-setup: ARE-bla HepG2 viability, CellTiter-Glo luminescence, 16 h; series mostly up to 73.3 µM
Results filed as inconclusive are left out. Activity calls are given as the source filed them. Calls come from the whole dose curve.
Returns: one label drawn from 1 (active), 0 (inactive)

Recorded results for 2 compounds are shown here.
>  <compound>
CC[C@H](C)COC(=O)/C=C/c1ccc(N=Cc2ccc(OC)cc2)cc1

>  <category-label>
0

$$$$
>  <compound>
COc1ccc(NC(=O)CC(C)=O)cc1

>  <category-label>
0

$$$$

Recorded call for `Oc1cc(Cl)cc(Cl)c1Cl` ?
0

Status in this test for `Nc1nc(-c2ccccc2)cs1` ?
0

Query: recorded result category for `Cc1cc(C)c(/C=C2\C(=O)Nc3ccccc32)[nH]1` in this test
0

Recorded test outcome, item `Clc1nnc(Cl)c2ccccc12`
0

For `CCCCOC(=O)CO` , what call appears in the results of this test?
0

Outcome? `COCCOc1cc2cc(C(=O)NC3CCN(C(C)C)CC3)n(CC(=O)Nc3ccc(Cl)cn3)c2cn1`
0

In this assay, the call recorded for `Cc1ccc(O)c(N)c1` was what?
0

Which outcome did this test record for the compound `Cc1c(N)cccc1C(F)(F)F` ?
0

// outcome(item) with item = `COc1ccc2cc1Oc1ccc(cc1)C[C@H]1c3c(cc4c(c3Oc3cc5c(cc3OC)CCN(C)[C@@H]5C2)OCO4)CCN1C`
1

Please let me know the test result on file for `CC1=CCC(=C(C)C)CC1` .
0

Call for entry `O=C(O)Cc1ccc2c(c1)C(=O)c1ccccc1CO2` :
0

Field: outcome | Entry: `O=C(O)c1ccc2cc(C(=O)O)ccc2c1`
0

Which outcome was entered for the compound `CC(C)(C)C1CCC(=O)CC1` in this test?
0

For this compound, state the assay outcome: `COC(=O)c1ccccc1OC`
0

Would you mind telling me which call this test gave `OC[C@@H](O)[C@@H](O)CO` ?
0

Given `O[C@@H]([C@H](O)[C@H](O)CBr)[C@H](O)CBr` , state the outcome it received in this test.
0

Just curious, what result did `CCCCCCCCCCOC(=O)c1ccccc1C(=O)OCCCCCCCC` get here?
0

// outcome(item) with item = `CCCCCc1ccc(Cl)cc1`
0

Hello, I am checking results. What call was entered for `CCn1c2ccccc2c2cc([N+](=O)[O-])ccc21` ?
0

// param item: `O=C(Nc1ccc2c(O)c(N=Nc3ccc(N=Nc4ccc(S(=O)(=O)O)cc4)cc3)c(S(=O)(=O)O)cc2c1)c1ccccc1` ; yields the recorded call
0

Entry `CC1=Nc2ccccc2C1(C)C` : call = ?
0

Hi, sorry to bother you, what did the test record for CC(C(=O)O)c1ccc2c(c1)[nH]c1ccc(Cl)cc12 (configuration not stated) ?
0
